# System: BDF1 mice, P288 leukemia ip, survival T/C
# ASSAY SUMMARY: NCI In Vivo Anticancer Drug Screen. Data for tumor model P288 Lymphocytic Leukemia (intraperitoneal) in B6D2F1 (BDF1) mice
# PROTOCOL CONDITIONS: endpoint: survival time, mean or median; dose: 16.0 mg/kg/injection; schedule: Q01DX010 (ip); vehicle: saline; higher = longer survival
Inconclusive results and toxic doses are left out.
Please provide measured T/C for the entries that follow.

Asked: I am curious: what T/C value has been reported for `Nc1nc(SCc2ccccc2)c2[nH]cnc2n1` ?
Given back: 88 % of control

Asked: I am curious: what T/C value has been reported for Nc1nc(=S)c2ncn(C3OC(CO)C(O)C3O)c2[nH]1 (stereo not given) ?
Given back: 106 % of control

Asked: I am curious: what T/C value has been reported for NC(Cc1ccc(N(CCCl)CCCl)cc1)C(=O)O (stereo not given) ?
Given back: 88 % of control

Asked: I am curious: what T/C value has been reported for C=CC(CN1CC1)OC(C)=O (stereo not given) ?
Given back: 115 % of control

Asked: I am curious: what T/C value has been reported for `O=C(Nc1ccc(NC2=NCCN2)cc1)c1ccc(C(=O)Nc2ccc(NC3=NCCN3)cc2)cc1` ?
Given back: 115 % of control
